// data source = patent US11078166B2

Recorded measurements of pKi, one per entry
- MEASUREMENT_TARGET: PSMA (Homo sapiens)
- Construct: endogenous in cells; host or cells: LNCaP cell lysate
- Sequence (Q04609 whole entry): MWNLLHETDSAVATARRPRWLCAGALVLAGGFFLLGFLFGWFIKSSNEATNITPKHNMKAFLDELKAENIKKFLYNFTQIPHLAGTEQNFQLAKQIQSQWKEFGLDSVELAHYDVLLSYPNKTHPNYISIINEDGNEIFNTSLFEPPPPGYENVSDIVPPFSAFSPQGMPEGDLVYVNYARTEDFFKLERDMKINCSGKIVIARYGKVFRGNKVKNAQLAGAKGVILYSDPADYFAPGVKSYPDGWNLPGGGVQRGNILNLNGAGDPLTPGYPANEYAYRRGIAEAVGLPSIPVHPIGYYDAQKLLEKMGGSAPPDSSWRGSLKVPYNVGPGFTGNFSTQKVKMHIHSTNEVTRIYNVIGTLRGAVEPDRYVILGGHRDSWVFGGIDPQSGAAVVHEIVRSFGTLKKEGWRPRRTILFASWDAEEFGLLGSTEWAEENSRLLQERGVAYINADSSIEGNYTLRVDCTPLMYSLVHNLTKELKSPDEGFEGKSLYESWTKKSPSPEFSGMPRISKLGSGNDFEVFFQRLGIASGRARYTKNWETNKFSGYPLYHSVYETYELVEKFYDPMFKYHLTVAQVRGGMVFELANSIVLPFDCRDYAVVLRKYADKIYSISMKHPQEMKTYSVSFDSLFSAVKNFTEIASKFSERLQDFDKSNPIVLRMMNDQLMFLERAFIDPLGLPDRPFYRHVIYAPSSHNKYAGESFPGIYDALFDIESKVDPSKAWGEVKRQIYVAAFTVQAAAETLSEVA
- TEST_NAME: NAALADase assay (fluorescence-based Amplex Red glutamic acid assay), PSMA inhibition
- Format: biochemical
- PARTICULARS: LNCaP cell lysates, 4 μM NAAG; Cheng-Prusoff conversion
pKi: −log10 of the molar value.

| COMPOUND | MEASUREMENT_TARGET | pKi |
| --- | --- | --- |
| O=C(O)CCC(NC(=O)NC(CCCCNC(=O)CCc1cn(CCF)nn1)C(=O)O)C(=O)O (stereo not drawn) [YC-88] | PSMA (Homo sapiens) | 7.89 |
| O=C(O)CCC(NC(=O)NC(CCCCNC(=O)CCCCCCC(=O)NC(CCCCNC(=O)CCc1cn(CCF)nn1)C(=O)O)C(=O)O)C(=O)O (stereo not drawn) [YC-71] | PSMA (Homo sapiens) | 9.22 |
| O=C(O)CC[C@H](OC(=O)N[C@@H](CCCCNC(=O)CCc1cn(CCF)nn1)C(=O)O)C(=O)O [YC-XY-01] | PSMA (Homo sapiens) | 6.33 |
